The origin of these recorded values is patent US20240124545A1.

# assay-procedure: in vitro
# condition-set: human
measure: CC50 at 48 h

Input CC(C)OC(=O)[C@H](C)N[P@](=O)(CO[C@H](C)Cn1cnc2c(N)ncnc21)Oc1ccccc1 [TAF, tenofovir alafenamide] . Output CC50 at 48 h: > 20 µM
